Origin of the recorded values: ChEMBL document CHEMBL3507680

assay: Human HepG2 cell viability assay in 384 well format; type: toxicity, cell-based; set-up: dose 125 nL, time 70.5 hour; concentration not given beside the values; conditions: HepG2 cells, read-out: Inhibition
outcomeMeasure: cytotoxicity at 70.5 h

As a guide, the following entries are already answered.
> print(dat)
                                   compound  measurement
1  CC1=N[C@@]2(CC[C@@H]3CN(C(=O)NC(C)C)C[C@@H]32)C(=O)N1CC1CC1        1.82%
2  CC(C)(C)Nc1c(C2CCN(C(=O)C(C)(C)C)CC2)nc2ccccn12       -4.87%
3  Cc1noc(C)c1-c1cc(CCC2CN(C(=O)CN)CCO2)ncn1 (configuration not stated)       -2.94%
4  COCCNC(=O)Cn1c(-c2ccc(Cl)cc2)nc(C)c(CCO)c1=O        3.28%
5  Cc1cc(C)c(CNC(=O)C2COc3ccccc3C2)c(=O)[nH]1 (configuration not stated)       0.458%
6  CCN(Cc1ccncc1)C(=O)c1cc(C)c(C)c(S(N)(=O)=O)c1       -2.98%

Your task in this section: give cytotoxicity at 70.5 h for each listed record.
1. COCC1COCCC12CCN(Cc1cccs1)CC2 (configuration not stated)
2. CC(C)CCN1C2(CCN(C(=O)C3(C)CC3)C2)c2ccccc2S1(=O)=O (configuration not stated)
3. CCc1noc(CN(Cc2cccs2)C2CC2)n1
4. Cc1nnc([C@@]23CCO[C@@H]2CCN(S(=O)(=O)c2cccnc2)C3)o1

[A]
-7.86%
-9.44%
0.387%
-5.15%

Your task in this section: give cytotoxicity at 70.5 h for each listed record.
1. Cc1cc(CNC(=O)CC2CN(C(=O)OC(C)(C)C)C2)ccc1F
2. CSc1nnc(CC2CCN(C(=O)CCc3cccnc3)CC2)n1C
3. COc1c(CNCC(O)c2cccc(F)c2)c(C)nn1C (configuration not stated)
4. CNC(=O)CN(C)c1cncc(OCc2ccccc2)n1
5. Cn1ccc(C(=O)NCc2ccccc2Cn2ccnc2)cc1=O
6. Cn1cc(CN2CCc3ncnc(N4CCOCC4)c3CC2)cn1
7. Cc1noc(C)c1-c1ccc(C2CCCN2C(=O)c2cccnc2)nc1 (configuration not stated)
8. CCCC1c2ccccc2CCN1CCS(C)(=O)=O (configuration not stated)

[A]
["-9.79%", "-8.7%", "-9.63%", "8.53%", "-8.24%", "-1.66%", "-4.62%", "-3.74%"]

Your task in this section: give cytotoxicity at 70.5 h for each listed record.
1. Cc1cc(C(=O)N2C[C@H]3CC[C@@H]2CN(Cc2ccccn2)C3)nc(N)n1
2. Cc1[nH]ccc1C(=O)N(C)C1CC(=O)N(Cc2ccccc2)C1=O (configuration not stated)

[A]
23.1%
-2.82%

Your task in this section: give cytotoxicity at 70.5 h for each listed record.
1. CCN(CC)CC1CN(CCc2ccccc2)Cc2nccn2C1 (configuration not stated)
2. COc1cccc(OCCNCc2ccccc2)c1
3. Cc1nn(C)cc1C(=O)N1C[C@H]2CC[C@@H]1CN(S(=O)(=O)N(C)C)C2
4. CC(=O)NCCNC(=O)NCCc1c(C)cc(C)cc1C
5. CC(=O)N1CCC(CCNC(C)c2cc(C)cc(C)c2)CC1 (configuration not stated)
6. CN1CC(=O)N(c2cccc(F)c2)CC12CCNC2 (configuration not stated)
7. CCO[C@@H]1CCN(C(=O)c2ccc[nH]2)[C@@H]1Cc1cnn(C)c1

[A]
1. -4.11%
2. -7.2%
3. -4.81%
4. 0.521%
5. 3.75%
6. 1.26%
7. -2.67%

Your task in this section: give cytotoxicity at 70.5 h for each listed record.
1. Oc1cccc(CNCc2ccc(-n3cncn3)nc2)c1
2. CCn1c(N)nc2cc(C(=O)NCCCc3ccccn3)cnc21
3. Cc1cc(C)c(Cn2cncn2)cc1CN1CC[C@H]2CC[C@@H](C1)N2
4. CC(CCc1ccccc1F)C(=O)NS(C)(=O)=O (configuration not stated)

[A]
1: 0.561%; 2: -15%; 3: 2.8%; 4: -8.18%

Your task in this section: give cytotoxicity at 70.5 h for each listed record.
1. CC(C)CNC(=O)CC1(Cn2cnnn2)CCCCC1
2. Cc1ccc(CC(=O)NC(C)C(=O)N2CCS(=O)(=O)CC2)s1 (configuration not stated)
3. COCCOc1ccccc1C(=O)NCCN(C)C(C)C
4. Cc1ccc(-c2noc(CN3CCC(c4ccn[nH]4)CC3)n2)cc1

[A]
["-12.5%", "-1.34%", "16.8%", "0.504%"]

Your task in this section: give cytotoxicity at 70.5 h for each listed record.
1. CCOCC1CN(C(=O)c2ccco2)Cc2cnn(CC)c21 (configuration not stated)
2. CCc1noc(-c2cccc(OCC(=O)NC(C)C)c2)n1

[A]
["12.3%", "-7.23%"]

Your task in this section: give cytotoxicity at 70.5 h for each listed record.
1. COc1cc2c(nn1)CCN(Cc1noc(CC(C)C)n1)C2
2. CC(=O)NCC1CCC2(CCN(c3ncnc4oc(C)nc34)CC2)O1 (configuration not stated)
3. Cc1nc(C2CCCN(C(=O)CCCn3cccn3)C2)no1 (configuration not stated)
4. COc1ccc(-c2nonc2N)cc1
5. COc1cc(C)nc(N2CCN(C(C)c3nc(C4CC4)no3)CC2)n1 (configuration not stated)
6. O=C(NCCN1CCCCC1CO)c1cc(-c2ccccc2)on1 (configuration not stated)
7. CC(C)CCN1CC2(CCN(C3CCCOC3)CC2)OC1=O (configuration not stated)
8. Cn1cccc1C(=O)NCc1cnc2n1CCN(C(N)=O)CC2

[A]
1: -4.19%; 2: 21.7%; 3: -11.8%; 4: -0.886%; 5: -10.4%; 6: -4.82%; 7: -8.74%; 8: -4.35%

Your task in this section: give cytotoxicity at 70.5 h for each listed record.
1. Cc1cc(CNC(=O)c2ccno2)c(C)o1
2. CCC(CC)C(=O)n1ccn(S(=O)(=O)c2ccc(C)cc2)c1=O

[A]
1: -7.21%; 2: 15.1%
